# Tested system: GABA-A receptor; anion channel
# Assay remarks: Inhibition of [35S]TBPS binding to Gamma-aminobutyric acid A (GABA-A) receptor of rat brain in the presence of 5 uM GABA
# Condition set: read-out: IC50
pIC50: −log10 of the molar value.
Item-by-item account of pIC50

>  <Molecule>
CC1CCc2nc3c(c(N)c2C1=O)c1ccccc1n3C (stereo unspecified)

>  <Comparative sign>
=

>  <pIC50>
6.02

$$$$
>  <Molecule>
Cc1nc2c(c(N)c1C(=O)O)c1ccccc1n2C

>  <Comparative sign>
<

>  <pIC50>
4.00

$$$$
>  <Molecule>
CCC1CCc2nc3c(c(N)c2C1=O)c1ccccc1n3C (stereo unspecified)

>  <Comparative sign>
=

>  <pIC50>
6.03

$$$$
>  <Molecule>
CCCC(=O)c1c(C)nc2c(c1N)c1ccccc1n2C

>  <Comparative sign>
=

>  <pIC50>
5.64

$$$$
>  <Molecule>
CCC(=O)c1c(C)nc2c(c1N)c1ccccc1n2C

>  <Comparative sign>
=

>  <pIC50>
5.80

$$$$
>  <Molecule>
CCOC(=O)c1c(C)nc2c(c1N)c1ccccc1n2C

>  <Comparative sign>
=

>  <pIC50>
5.70

$$$$

====

# Tested system: GABA-A receptor; anion channel
# Assay remarks: Displacement of [3H]flunitrazepam from rat cerebral cortex
# Assay type: tissue-based
pIC50: −log10 of the molar value.

>  <Compound>
CCOC(=O)c1c(C)nc2c(c1N)c1ccccc1n2C

>  <Tested system>
GABA-A receptor; anion channel

>  <pIC50>
< 4.00

$$$$
>  <Compound>
CCC(=O)c1c(C)nc2c(c1N)c1ccccc1n2C

>  <Tested system>
GABA-A receptor; anion channel

>  <pIC50>
< 4.00

$$$$
>  <Compound>
CC1CCc2nc3c(c(N)c2C1=O)c1ccccc1n3C (centres undefined)

>  <Tested system>
GABA-A receptor; anion channel

>  <pIC50>
< 4.00

$$$$
>  <Compound>
Cc1nc2c(c(N)c1C(=O)O)c1ccccc1n2C

>  <Tested system>
GABA-A receptor; anion channel

>  <pIC50>
< 4.00

$$$$

====

# Species on record: Rattus norvegicus
# Assay remarks: Minimum effective peroral dose in Geller-Seifter paradigm
# Assay type: functional
# Condition set: po, read-out: MED

>  <Compound>
Cn1c2ccccc2c2c(N)c3c(nc21)CCOC3=O

>  <Result unit>
mg/kg

>  <Comparative sign>
>

>  <minimal effective dose>
20

$$$$
>  <Compound>
Cc1nc2c(c(N)c1C(=O)O)c1ccccc1n2C

>  <Result unit>
mg/kg

>  <Comparative sign>
>

>  <minimal effective dose>
50

$$$$
>  <Compound>
CN1C(=O)CN=C(c2ccccc2)c2cc(Cl)ccc21

>  <Result unit>
mg/kg

>  <Comparative sign>
=

>  <minimal effective dose>
2.5

$$$$
>  <Compound>
CCOC(=O)c1c(C)nc2c(c1N)c1ccccc1n2C

>  <Result unit>
mg/kg

>  <Comparative sign>
=

>  <minimal effective dose>
10

$$$$
>  <Compound>
CCC1CCc2nc3c(c(N)c2C1=O)c1ccccc1n3C (stereo not drawn)

>  <Result unit>
mg/kg

>  <Comparative sign>
=

>  <minimal effective dose>
20

$$$$
>  <Compound>
CC1CCc2nc3c(c(N)c2C1=O)c1ccccc1n3C (stereo not drawn)

>  <Result unit>
mg/kg

>  <Comparative sign>
=

>  <minimal effective dose>
5

$$$$
>  <Compound>
CCC(=O)c1c(C)nc2c(c1N)c1ccccc1n2C

>  <Result unit>
mg/kg

>  <Comparative sign>
=

>  <minimal effective dose>
20

$$$$
>  <Compound>
CCCC(=O)c1c(C)nc2c(c1N)c1ccccc1n2C

>  <Result unit>
mg/kg

>  <Comparative sign>
=

>  <minimal effective dose>
20

$$$$
